Listed here are compounds together with their documented IC90.
tested on: human hepatoma cell line ET; test: Cytotoxicity in the replicon cell line, colorimetric assay of cell numbers; conditions: read-out: Cytotoxicity IC90; ET cells, 72 h; concentration inhibiting cell viability by 90%

Compound	IC90
C/C=C/C[C@@H](C)[C@@H](O)[C@H]1C(=O)N[C@@H](CC)C(=O)N(C)[C@H](OC(C)C)C(=O)N(C)[C@@H](CC(C)C)C(=O)N[C@@H](C(C)C)C(=O)N(C)[C@@H](CC(C)C)C(=O)N[C@@H](C)C(=O)N[C@H](C)C(=O)N(C)[C@@H](CC(C)C)C(=O)N(C)[C@@H](CC(C)C)C(=O)N(C)[C@@H](C(C)C)C(=O)N1C	> 20 µM
C/C=C/C[C@@H](C)[C@@H](O)[C@H]1C(=O)N[C@@H](CC)C(=O)N(C)C(OCCNC)C(=O)N(C)[C@@H](CC(C)C)C(=O)N[C@@H](C(C)C)C(=O)N(C)[C@@H](CC(C)C)C(=O)N[C@@H](C)C(=O)N[C@H](C)C(=O)N(C)[C@@H](CC(C)C)C(=O)N(C)[C@@H](CC(C)C)C(=O)N(C)[C@@H](C(C)C)C(=O)N1C (stereo partly drawn) [Compound I, 3-[2-(N-methylamino)ethoxy]cyclosporin]	17.4 µM
C/C=C/C[C@@H](C)[C@@H](O)[C@H]1C(=O)N[C@@H](CC)C(=O)N(C)C(OCCO)C(=O)N(C)[C@@H](CC(C)C)C(=O)N[C@@H](C(C)C)C(=O)N(C)[C@@H](CC(C)C)C(=O)N[C@@H](C)C(=O)N[C@H](C)C(=O)N(C)[C@@H](CC(C)C)C(=O)N(C)[C@@H](CC(C)C)C(=O)N(C)[C@@H](C(C)C)C(=O)N1C (stereo partly drawn) [G, 3-(2-hydroxyethoxy)cyclosporin]	> 20 µM
